# System: Diet Induced Obese (DIO) C57BL/6 mice
# procedure details: 10 day DIO mouse model (body weight, food intake, hematology, blood chemistry)
# Format: in vivo
# study conditions: 240 h; DIO mouse, 0.3 mpk sc, once a day for 10 days; read-out: DIO Mouse 10-day weight loss vs vehicle
Where a name gives a salt, the structure may show the parent alone.
Can you tell me inhibition in vivo at 0.3 mg/kg for the items I'm about to list?
The answer is to be given in %; state only the numeric part.

// query Any idea what its inhibition in vivo at 0.3 mg/kg is? The compound is CO[C@@H]1[C@H](OC(=O)N2CC(CCN3CC[C@@H](O)C3)C2)CC[C@]2(CO2)[C@H]1[C@@]1(C)O[C@@H]1CC=C(C)C [Example 47]
// result 5.6

// query CO[C@@H]1[C@H](OC(=O)N2CC(OC(=O)N3CCOCC3)C2)CC[C@]2(CO2)[C@H]1[C@@]1(C)O[C@@H]1CC=C(C)C [Example 71, formate] ?
// result 8.9

// query CCNC[C@@H]1CCN1C(=O)O[C@@H]1CC[C@]2(CO2)[C@@H]([C@@]2(C)O[C@@H]2CC=C(C)C)[C@@H]1OC [Example 122] ?
// result 3.2

// query CO[C@@H]1[C@H](OC(=O)N2CC(CCN3CCOCC3)C2)CC[C@]2(CO2)[C@H]1[C@@]1(C)O[C@@H]1CCC(C)C [Example 127] ?
// result 15.2

// query COC(=O)NC1CN(C(=O)O[C@@H]2CC[C@]3(CO3)[C@@H]([C@@]3(C)O[C@@H]3CC=C(C)C)[C@@H]2OC)C1 [Example 87] ?
// result 10.9

// query CO[C@@H]1[C@H](OC(=O)N2CC(OC(=O)NCC(C)(C)O)C2)CC[C@]2(CO2)[C@H]1[C@@]1(C)O[C@@H]1CC=C(C)C [Example 82] ?
// result -0.7

// query CO[C@@H]1[C@H](OC(=O)N2CC(OC(N)=O)C2)CC[C@]2(CO2)[C@H]1[C@@]1(C)O[C@@H]1CC=C(C)C [Example 72] ?
// result 0.8

// query CO[C@@H]1[C@H](OC(=O)N2CC(CC(=O)N3CCOCC3)C2)CC[C@]2(CO2)[C@H]1[C@@]1(C)O[C@@H]1CC=C(C)C [Example 62, formate] ?
// result 7.4

// query CCN(CC)C[C@H]1CCN1C(=O)O[C@@H]1CC[C@]2(CO2)[C@@H]([C@@]2(C)O[C@@H]2CC=C(C)C)[C@@H]1OC [Example 43, formate] ?
// result 2.7

// query CO[C@@H]1[C@H](OC(=O)N2CC(CCC3CCN(CC(F)F)CC3)C2)CC[C@]2(CO2)[C@H]1[C@@]1(C)O[C@@H]1CC=C(C)C [Example 91, formate] ?
// result 29.7

// query CO[C@@H]1[C@H](OC(=O)N2CC(=CCN3CCOCC3)C2)CC[C@]2(CO2)[C@H]1[C@@]1(C)O[C@@H]1CC=C(C)C [Example 96] ?
// result 18.6

// query CO[C@@H]1[C@H](OC(=O)N2CC(CCN3CC(C)(C#N)C3)C2)CC[C@]2(CO2)[C@H]1[C@@]1(C)O[C@@H]1CC=C(C)C [Example 14] ?
// result 12.5

---

Can you tell me inhibition in vivo at 0.3 mg/kg for the items I'm about to list?
# Tested on: Diet Induced Obese (DIO) C57BL/6 mice
# procedure details: 10 day DIO mouse model (body weight, food intake, hematology, blood chemistry)
# Format: in vivo
# study conditions: 240 h; DIO mouse, 0.3 mpk sc, once a day for 10 days; read-out: DIO Mouse 10-day weight loss vs vehicle
Where a name gives a salt, the structure may show the parent alone.
Express the reported value numerically, then name its unit.

// query Any idea what its inhibition in vivo at 0.3 mg/kg is? The compound is CCNC(=O)OC1CN(C(=O)O[C@@H]2CC[C@]3(CO3)[C@@H]([C@@]3(C)O[C@@H]3CC=C(C)C)[C@@H]2OC)C1 [Example 75]
// result 12.8%

// query CO[C@@H]1[C@H](OC(=O)N2CC(CCN3CCC(C#N)(C#N)CC3)C2)CC[C@]2(CO2)[C@H]1[C@@]1(C)O[C@@H]1CC=C(C)C [Example 36] ?
// result 11.2%

// query CCN(CC)C[C@@H]1CCN1C(=O)O[C@@H]1CC[C@]2(CO2)[C@@H]([C@@]2(C)O[C@@H]2CC=C(C)C)[C@@H]1OC [Example 40, formate] ?
// result 6%

---

Can you tell me inhibition in vivo at 0.3 mg/kg for the items I'm about to list?
# System: Diet Induced Obese (DIO) C57BL/6 mice
# procedure details: 10 day DIO mouse model (body weight, food intake, hematology, blood chemistry)
# Assay type: in vivo
# study conditions: 240 h; DIO mouse, 0.3 mpk sc, once a day for 10 days; read-out: DIO Mouse 10-day weight loss vs vehicle
Structures can show the parent of a compound that is named as a salt.
The answer is to be given in %; state only the numeric part.

// query Any idea what its inhibition in vivo at 0.3 mg/kg is? The compound is CCN(CC)C[C@@H]1CCCN1C(=O)O[C@@H]1CC[C@]2(CO2)[C@@H]([C@@]2(C)O[C@@H]2CC=C(C)C)[C@@H]1OC [Example 48, formate]
// result 7.2

// query CO[C@@H]1[C@H](OC(=O)N2CC(CCC(=O)NCCN3CCOCC3)C2)CC[C@]2(CO2)[C@H]1[C@@]1(C)O[C@@H]1CC=C(C)C [Example 67] ?
// result 2.8

// query CO[C@@H]1[C@H](OC(=O)N2CC(CCN3CC[C@H](O)C3)C2)CC[C@]2(CO2)[C@H]1[C@@]1(C)O[C@@H]1CC=C(C)C [Example 46, formate] ?
// result 5.2

// query CO[C@@H]1[C@H](OC(=O)N2CC(CCn3cccn3)C2)CC[C@]2(CO2)[C@H]1[C@@]1(C)O[C@@H]1CC=C(C)C [Example 17] ?
// result 12.6

// query CCNCCCC1CN(C(=O)O[C@@H]2CC[C@]3(CO3)[C@@H]([C@@]3(C)O[C@@H]3CC=C(C)C)[C@@H]2OC)C1 [Example 124, formate] ?
// result 4.9

// query CCN(CC)CC[C@H]1CCCN1C(=O)O[C@@H]1CC[C@]2(CO2)[C@@H]([C@@]2(C)O[C@@H]2CC=C(C)C)[C@@H]1OC [Example 50, formate] ?
// result 2.6

// query CO[C@@H]1[C@H](OC(=O)N2CC(CCN3CC(C)(C(=O)N(C)C)C3)C2)CC[C@]2(CO2)[C@H]1[C@@]1(C)O[C@@H]1CC=C(C)C [Example 20] ?
// result 2.1

// query CCN(CC)CCNC(=O)OCC1CN(C(=O)O[C@@H]2CC[C@]3(CO3)[C@@H]([C@@]3(C)O[C@@H]3CC=C(C)C)[C@@H]2OC)C1 [Example 68] ?
// result 0

// query CO[C@@H]1[C@H](OC(=O)N2CC(CCN3CCCC3)C2)CC[C@]2(CO2)[C@H]1[C@@]1(C)O[C@@H]1CC=C(C)C [Example 3, formate] ?
// result 5.9

// query CO[C@@H]1[C@H](OC(=O)N2CCC(CCN3CC(F)(F)C3)C2)CC[C@]2(CO2)[C@H]1[C@@]1(C)O[C@@H]1CC=C(C)C (stereo in doubt) [Example 57] ?
// result 17.4

// query CO[C@@H]1[C@H](OC(=O)N2CC(CC3CCN(CC(F)F)CC3)C2)CC[C@]2(CO2)[C@H]1[C@@]1(C)O[C@@H]1CC=C(C)C [Example 94] ?
// result 22.5

// query CO[C@@H]1[C@H](OC(=O)N2CC(COC(=O)N(C)C)C2)CC[C@]2(CO2)[C@H]1[C@@]1(C)O[C@@H]1CC=C(C)C [Example 70] ?
// result 14.5

---

# Tested on: pregnant Sprague Dawley rats (embryo/fetal development)
# study conditions: rat, in vivo
Counter-ions that a name gives are not always drawn.
measured property: Rat Embryofetal @6 mpk

{"compound": "CO[C@@H]1[C@H](OC(=O)N2CC(CCN3CC(C)(O)C3)C2)CC[C@]2(CO2)[C@H]1[C@@]1(C)O[C@@H]1CC=C(C)C [Example 9, formate]", "value": "Positive"}
{"compound": "CO[C@@H]1[C@H](OC(=O)N2CC(CCN3CC(O)C3)C2)CC[C@]2(CO2)[C@H]1[C@@]1(C)O[C@@H]1CC=C(C)C [Example 6, formate]", "value": "Positive"}
{"compound": "CCN(CC)CCNC(=O)CCC1CN(C(=O)O[C@@H]2CC[C@]3(CO3)[C@@H]([C@@]3(C)O[C@@H]3CC=C(C)C)[C@@H]2OC)C1 [Example 88, formate]", "value": "Positive"}

Origin of the recorded values: patent US9682965B2
